Test: self-splicing fitness, log relative to wild type (ln ratio); higher = more splicing; Tetrahymena group I intron in knt gene, E. coli kanamycin selection, DiMSum; sequences stand for … in CUCUCU…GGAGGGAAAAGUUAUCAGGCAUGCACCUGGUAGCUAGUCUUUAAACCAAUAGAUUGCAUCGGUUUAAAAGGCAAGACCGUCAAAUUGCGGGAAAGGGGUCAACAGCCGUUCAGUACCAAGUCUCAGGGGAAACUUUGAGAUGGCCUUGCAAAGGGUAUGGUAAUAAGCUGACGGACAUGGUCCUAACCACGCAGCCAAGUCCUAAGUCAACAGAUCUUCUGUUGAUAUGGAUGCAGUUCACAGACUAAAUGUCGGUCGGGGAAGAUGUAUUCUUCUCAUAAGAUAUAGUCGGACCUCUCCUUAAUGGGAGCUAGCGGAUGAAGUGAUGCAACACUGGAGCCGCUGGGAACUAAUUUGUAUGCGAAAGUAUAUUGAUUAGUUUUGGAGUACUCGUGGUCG;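 note: selection with 25 µg/mL kanamycin versus none on LB agar overnight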
Details: 30 °C
experimental_endpoint: self-splicing fitness (ln)
Returns: the value as a bare number; no unit string appended.

Check out these entries, answers already filled in.
         residue_string  result_value
0  AGUAAGCAAUAUUACGACGG         -3.42
1  CGGUAGCAAUAUUACGGUGC         -2.22

Note down self-splicing fitness (ln) recorded for `UAACAGCAAUAUUACGCAUG`
-1.43

Note down self-splicing fitness (ln) recorded for `AGUAAGCAAUAUUACGGUUG`
-3.09

Note down self-splicing fitness (ln) recorded for `GGCGAGCAAUAUUACGUAUC`
-1.61

Note down self-splicing fitness (ln) recorded for `CUAGAGCAAUAUUACGGCCA`
-2.59

Note down self-splicing fitness (ln) recorded for `CGCAAGCAAUAUUACGGGGA`
-3.1

Note down self-splicing fitness (ln) recorded for `GGCGAGCAAUAUUACGGACG`
-0.223

Note down self-splicing fitness (ln) recorded for `GGUGAGCAAUAUUACGUUCG`
-2.65

Note down self-splicing fitness (ln) recorded for `GAAUAGCAAUAUUACGUUUU`
-3.38

* * *

Experiment: self-splicing fitness, log relative to wild type (ln ratio); higher = more splicing; Tetrahymena group I intron in knt gene, E. coli kanamycin selection, DiMSum; sequences stand for … in CUCUCU…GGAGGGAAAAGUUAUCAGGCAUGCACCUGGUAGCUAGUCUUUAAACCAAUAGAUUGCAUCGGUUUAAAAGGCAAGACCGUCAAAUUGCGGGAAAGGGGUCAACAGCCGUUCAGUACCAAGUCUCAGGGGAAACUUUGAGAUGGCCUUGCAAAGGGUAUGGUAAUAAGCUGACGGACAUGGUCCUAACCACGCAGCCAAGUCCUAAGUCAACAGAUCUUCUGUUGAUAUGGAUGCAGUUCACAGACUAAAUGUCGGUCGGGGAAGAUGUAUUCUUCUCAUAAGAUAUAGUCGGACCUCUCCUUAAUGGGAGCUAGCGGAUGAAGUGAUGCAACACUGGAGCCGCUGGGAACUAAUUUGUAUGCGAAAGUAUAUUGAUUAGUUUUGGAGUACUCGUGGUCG
Settings: 37 °C
Catalogue of self-splicing fitness (ln) values
Returns: the value as a bare number; no unit string appended.

Note down self-splicing fitness (ln) recorded for `CACUAGCAAUAUUACGCACU`
-0.108

Note down self-splicing fitness (ln) recorded for `UGCGAGCAAUAUUACGUAUC`
-2.37

Note down self-splicing fitness (ln) recorded for `GACAAGCAAUAUUACGGUGG`
-1.88

Note down self-splicing fitness (ln) recorded for `GUCAAGCAAUAUUACGAGCU`
-1.85

Note down self-splicing fitness (ln) recorded for `CCCUAGCAAUAUUACGCGGA`
-0.827

Note down self-splicing fitness (ln) recorded for `GUUGAGCAAUAUUACGGCGA`
-2.44
